Test: in vivo
Conditions: BALB/c nude, mouse, in vivo, iv, total radioactivity, uptake Liver
Procedure: To a 0.5 M NaOAc buffer (20-50 μL, pH=4.5) was added 4 μL of exemplary or comparator compound in DMSO stock solution (2000 μM) and 2 mCi ^177Lu (ITM Isotope Technologies Munich), the resulting mixture was heated to 95° C. for 15 min. The resulting product was analyzed by radio-TLC and radio-HPLC (column: Shim-pack GIST 5 μm 4.6*150 mm; buffer A: 0.2% formic acid H2O; buffer B: 0.1% formic acid acetonitrile; flow rate: 1 mL/min; gradient: 0-5 min: 10% B to 95% B; then 5-8 min: 95% B). […]
assay-endpoint: tissue uptake at 24 h (%ID/g)
Answers are plain numbers, in %ID/g.

Recorded tissue uptake at 24 h for C[C@@H](O)[C@H](NC(=O)[C@@H]1CSSC[C@H](NC(=O)[C@@H](Cc2ccccc2)NC(=O)COCCOCCNC(=O)[C@H](CCCCNC(=O)c2cccc(NC(=O)N[C@@H]3CN(C4CCCCC4)c4ccccc4N(CC(=O)C(C)(C)C)C3=O)c2)NC(=O)CN2CCN(CC(=O)O)CCN(CC(=O)O)CCN(CC(=O)O)CC2)C(=O)N[C@@H](Cc2ccc(O)cc2)C(=O)N[C@H](Cc2c[nH]c3ccccc23)C(=O)N[C@@H](CCCCN)C(=O)N[C@@H]([C@@H](C)O)C(=O)N1)C(=O)O [Compound I-37, DOTA-K(Z360)-OEG-f[CYwKTC]T-OH] , please?
2.4

###

Would you mind telling me the reported tissue uptake at 24 h of each entry?
Assay: in vivo
Conditions: BALB/c nude, mouse, in vivo, iv, total radioactivity, % ID/g Lung
Answers are plain numbers, in %ID/g.

1) CCCC[C@H](NC(=O)[C@H](Cc1c[nH]c2ccccc12)NC(=O)CNC(=O)[C@H](Cc1ccc(O)cc1)NC(=O)[C@H](C)NC(=O)[C@@H](CCC(=O)O)NC(=O)[C@@H](CCC(=O)O)NC(=O)[C@@H](CCC(=O)O)NC(=O)[C@@H](CCC(=O)O)NC(=O)[C@@H](CCC(=O)O)NC(=O)[C@@H](CCC(=O)O)NC(=O)CN1CCN(CC(=O)O)CCN(CC(=O)O)CCN(CC(=O)O)CC1)C(=O)N[C@@H](CC(=O)O)C(=O)N[C@@H](Cc1ccccc1)C(N)=O [^177Lu-C-2, metal not drawn, reference compound] ... 0.11

Please give the measured tissue uptake at 24 h for this compound: CC(C)(C)C(=O)CN1C(=O)[C@H](NC(=O)Nc2cccc(C(=O)N[C@@H](CCC(=O)N[C@@H](CCC(=O)N[C@@H](CCC(=O)N[C@@H](CCCCNC(=O)COCCOCCNC(=O)COCCOCCNC(=O)CCC(C(=O)O)N3CCN(CC(=O)O)CCN(CC(=O)O)CCN(CC(=O)O)CC3)C(N)=O)C(=O)O)C(=O)O)C(=O)O)c2)CN(C2CCCCC2)c2ccccc21 (some centres unmarked) [^177Lu-C-4, metal not drawn, reference compound]
0.03

###

Experiment: Biodistribution study of 177Lu-labeled compounds in AR42J tumor-bearing mice
Conditions: BALB/c nude, mouse, pancreas, iv, total radioactivity, % ID/g Pancreas, 24 h post-injection, n=3
assay-endpoint: tissue uptake at 24 h (%ID/g)
Give bare numbers, in %ID/g.

Which measured tissue uptake at 24 h value corresponds to CCCC[C@H](NC(=O)[C@H](Cc1c[nH]c2ccccc12)NC(=O)CNC(=O)[C@H](Cc1ccc(O)cc1)NC(=O)[C@H](C)NC(=O)[C@@H](CCC(=O)O)NC(=O)[C@@H](CCC(=O)O)NC(=O)[C@@H](CCC(=O)O)NC(=O)[C@@H](CCC(=O)O)NC(=O)[C@@H](CCC(=O)O)NC(=O)[C@@H](CCC(=O)O)NC(=O)CN1CCN(CC(=O)O)CCN(CC(=O)O)CCN(CC(=O)O)CC1)C(=O)N[C@@H](CC(=O)O)C(=O)N[C@@H](Cc1ccccc1)C(N)=O [^177Lu-C-2, metal not drawn, reference compound] ?
0.02
